Data provenance: the supplement of paper PMC9170038

System: MS2 coat protein
Assay: apparent KD of MS2 coat protein; designed switch direction (-1 OFF switch, 1 ON switch): -1; higher = weaker reporter binding
Details: input ligand: none
Answer Condition not met if apparent KD of MS2 coat protein is under 40 nM, and Condition met if it is 40 nM or more.

GCACGGAGUGUAGGAUAUUAGUGCGAUUAGCACUGAGAAGGACAUGAGGAUCACCCAUGUUCCUCAAUAAAAUACCUUCCGUGC [Eli exng1 - 040] (Eterna round: R96, puzzle: Exclusion NG 1)	Condition not met
UGAGCAUCAGGAUAUACAAGGCGACCGUGAGGUCGAGGGUUACAUGAGGAUCACCCAUGUAGAAGGGAUGUUCU [jl-ex2-4.09] (Eterna round: R97, puzzle: Exclusion 2)	Condition met
AGUACUAACACGAGAGUGUUAGUACAAUAAGCUUGUGAAACAUGAGGAUCACCCAUGUCCUCAUAAGCUCGUCUUAU [salish99_TOv2_r3_029] (Eterna round: R96, puzzle: Sensor v3, turn-off variant 2)	Condition not met
GUCCUCAUGACAUGAGGAUCACCCAUGUAUUAUUUGGUAACUGAGGAUAUACUUUUAAUGUUUAUGUAGAAGGCAGAUACGGUU [JR_ExcNG3_Sub018] (Eterna round: R96, puzzle: Exclusion NG 3)	Condition met
CGAGCUCAUGUGAGGAUAUACCUAUGGAUACAUAGGUAGAAGGCACAUGAGGAUCACCCAUGUCCUAGAGCUCG [jl-bmx4-4.58] (Eterna round: R97, puzzle: Brourd's mod of Exclusion 4)	Condition met
CUAGGGCGCAUUUAAACGCCCUAACAUGAGGAUCACCCAUGUCAGGAUAUGUAGGCAAAGACCCUACAGAAGGGACAUGUCCUA [Lainceso] (Eterna round: R96, puzzle: Exclusion NG 3)	Condition met
CCAGCGUAUGUGAGGAUAUGCUGGUCCUUGGAUCAGCAGAAGGCACAUGAGGAUCACCCAUGUGAGAGCGUUGG [JL bmx4 3.37] (Eterna round: R96, puzzle: Brourd's mod of Exclusion 4)	Condition not met
